- System: SK-MEL-28 melanoma
- measurement description: NCI tumour cell line growth inhibition, 48 h; in the data active = GI50 below about 0.43 µM; inactive = the rest
Your answer must be one of the following: active, inactive

// param item: `COc1ccc(CN2CCc3c(Cl)nc(N)nc3C2=O)c(OC)c1` ; yields the recorded call
inactive

// param item: `N#Cc1c(N)nn(C(=O)c2ccc(NC(=O)c3ccccn3)cc2)c1-c1ccc(Cl)cc1` ; yields the recorded call
inactive

// param item: `COc1ccc(C(=O)c2cc3c(N)c(C(=O)Nc4cccc(Cl)c4)sc3nc2C)cc1` ; yields the recorded call
inactive

// param item: `O=C(Nc1ccc(Cl)c(Cl)c1)Nc1ccc(Cl)c([N+](=O)[O-])c1` ; yields the recorded call
inactive

// param item: `O=C1CCC/C=C\C[C@H]2C=C(Cl)C(=O)/C2=C/C[C@H](CCCCC(F)(F)F)OC(=O)CCC/C=C\C[C@H]2C=C(Cl)C(=O)/C2=C/C[C@H](CCCCC(F)(F)F)O1` ; yields the recorded call
active

// param item: `O=c1ccc2nc(-c3ccccc3)nn(-c3ccccc3)c-2c1` ; yields the recorded call
inactive

// param item: `CC/C=C/[C@@H]1C=C[C@@H]2CCC[C@H]2[C@@H]1CC[C@H](O)[C@H](C)N` ; yields the recorded call
inactive
